Target: T1, IL-18 receptors on HEK-Blue IL-18 reporter cells (UniProt Q13478 19-541; O95256 20-599, limits assumed); further: unit not given here
T1 sequence (looked up) 1: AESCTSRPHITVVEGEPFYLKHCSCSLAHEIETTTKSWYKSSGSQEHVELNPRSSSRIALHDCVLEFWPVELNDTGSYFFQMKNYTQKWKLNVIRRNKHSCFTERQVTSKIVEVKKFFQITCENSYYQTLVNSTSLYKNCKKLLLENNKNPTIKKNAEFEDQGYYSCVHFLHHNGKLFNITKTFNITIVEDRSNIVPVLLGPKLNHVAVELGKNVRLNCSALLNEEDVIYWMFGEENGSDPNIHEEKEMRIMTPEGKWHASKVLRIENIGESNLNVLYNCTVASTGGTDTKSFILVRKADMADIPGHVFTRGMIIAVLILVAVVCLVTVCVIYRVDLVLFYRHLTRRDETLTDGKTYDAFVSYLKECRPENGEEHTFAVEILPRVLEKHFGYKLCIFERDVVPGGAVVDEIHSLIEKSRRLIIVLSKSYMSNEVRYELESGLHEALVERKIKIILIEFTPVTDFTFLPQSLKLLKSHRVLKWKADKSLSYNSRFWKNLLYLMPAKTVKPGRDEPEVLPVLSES
T1 sequence (looked up) 2: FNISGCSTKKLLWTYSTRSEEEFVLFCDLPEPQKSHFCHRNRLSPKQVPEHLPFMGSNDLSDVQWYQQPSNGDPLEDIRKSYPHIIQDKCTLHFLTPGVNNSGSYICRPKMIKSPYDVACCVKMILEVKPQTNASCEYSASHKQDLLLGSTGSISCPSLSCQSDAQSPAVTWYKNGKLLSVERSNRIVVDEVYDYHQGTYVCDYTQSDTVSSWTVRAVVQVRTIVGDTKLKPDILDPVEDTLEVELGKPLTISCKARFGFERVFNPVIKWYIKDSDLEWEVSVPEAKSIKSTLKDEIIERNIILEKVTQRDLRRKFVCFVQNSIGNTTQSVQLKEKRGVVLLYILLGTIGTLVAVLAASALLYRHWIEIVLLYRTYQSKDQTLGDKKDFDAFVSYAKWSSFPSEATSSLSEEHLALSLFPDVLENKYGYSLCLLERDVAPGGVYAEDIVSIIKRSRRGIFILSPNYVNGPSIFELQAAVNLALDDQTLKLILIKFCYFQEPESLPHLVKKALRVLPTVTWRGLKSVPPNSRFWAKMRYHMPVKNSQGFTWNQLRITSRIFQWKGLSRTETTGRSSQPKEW
Assay: cell-based or functional assay

| binder | HEK-Blue activity, No BP, DF-1,000,000 |
| --- | --- |
| IL-18 variant K53H, S55M, Q56H (ligand) YFGKLESKLSVIRNLNDQVLFIDQGNRPLFEDMTDSDMRDNAPRTIFIISMYHDMHPRGMAVTISVKSEKISTLSSENKIISFKEMNPPDNIKDTKSDIIFFQRSVPGHDNKMQFESSSYEGYFLASEKERDLFKLILKKEDELGDRSIMFTVQNED | 0.08 |
| IL-18 variant S36W, D37E, D40F, N41I, K53D, S55N (ligand) YFGKLESKLSVIRNLNDQVLFIDQGNRPLFEDMTDWEMRFIAPRTIFIISMYDDNQPRGMAVTISVKSEKISTLSSENKIISFKEMNPPDNIKDTKSDIIFFQRSVPGHDNKMQFESSSYEGYFLASEKERDLFKLILKKEDELGDRSIMFTVQNED | 0.13 |
| IL-18 variant K53H, S55Y (ligand) YFGKLESKLSVIRNLNDQVLFIDQGNRPLFEDMTDSDMRDNAPRTIFIISMYHDYQPRGMAVTISVKSEKISTLSSENKIISFKEMNPPDNIKDTKSDIIFFQRSVPGHDNKMQFESSSYEGYFLASEKERDLFKLILKKEDELGDRSIMFTVQNED | 0.09 |

From: patent US20240182536A1
